Exercise: for every item that follows, state its recorded pIC50.
Molecular target: Recombinant human HSP90α (Homo sapiens, UniProt P07900)
Experiment: HSP90 radioligand filter binding test, competition with [3H]17AAG
Conditions: [3H]17AAG 0.08 μM; HSP90 1.5 μg/assay; 22° C., 30 min; read-out: HSP90 inhibition IC50
Please keep in mind that pIC50 is minus log10 of the molar concentration; only the number is needed.

The molecule listed as COc1ccc(-c2c(C#N)c(N)nc3sc(C(N)=O)c(N)c23)cc1OCC(N)=O [Compound A30] shows pIC50 equal to 5.48

The molecule listed as COc1ccc(-c2c(C#N)c(N)nc3sc(C(N)=O)c(N)c23)cc1OCCCCC(=O)O [Compound A7a] shows pIC50 equal to 6.19

The molecule listed as COc1ccc(-c2c(C#N)c(N)nc3sc(C(N)=O)c(N)c23)cc1OCc1cccc(OC(F)F)c1 [Compound A693] shows pIC50 equal to 6.17

The molecule listed as CCOC(=O)CCCOc1cc(-c2c(C#N)c(N)nc3sc(C(N)=O)c(N)c23)ccc1OC [Compound A7c] shows pIC50 equal to 5.89

The molecule listed as CCOC(=O)CCCCCOc1cc(-c2c(C#N)c(N)nc3sc(C(N)=O)c(N)c23)ccc1OC [Compound A4] shows pIC50 equal to 5.60

The molecule listed as COc1ccc(-c2c(C#N)c(N)nc3sc(C(N)=O)c(N)c23)cc1OCc1cccc(C(F)(F)F)c1 [Compound A21] shows pIC50 equal to 6.11

The molecule listed as COc1ccc(-c2c(C#N)c(N)nc3sc(C(N)=O)c(N)c23)cc1OC [Compound A1] shows pIC50 equal to 6.00

The molecule listed as COc1ccc(-c2c(C#N)c(N)nc3sc(C(N)=O)c(N)c23)cc1OCc1ccccc1C [Compound A11] shows pIC50 equal to 5.85
